Target: T1, human TL1A extracellular domain with N-terminal HIS and FLAG tag (human, UniProt O95150 72-251)
T1 construct: the whole entry is named; also called TNFSF15
T1 sequence: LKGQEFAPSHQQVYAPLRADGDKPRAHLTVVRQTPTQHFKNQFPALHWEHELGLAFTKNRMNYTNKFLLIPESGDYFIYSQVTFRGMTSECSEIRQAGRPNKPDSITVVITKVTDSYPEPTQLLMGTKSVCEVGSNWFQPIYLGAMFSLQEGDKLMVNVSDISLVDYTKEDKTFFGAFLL
Test: SPR Run 7, antibody on Protein A, TL1A 5 ug/mL, timepoint 220
Reported TL1A Binding Level (Late) values for the following binders.
Report the figure in RU without appending any unit label.

{"columns": ["BINDER", "METRIC", "ASSAY VALUE"],
 "data": [
  ["320-571 (antibody, human IgG1, name in Kabat numbering, V domains shown, full-length human IgG1, lambda) VH: QVQLVQSGAEVKKPGASVKVSCKASGYTFTSYDINWVRQAPGQGLEWMGWLNPNSGNTGKAQKFQGRVTMTADRSTSTAYMELSSLRSEDTAVYYCAREVPETAAFEYWGQGTLVTVSS VL: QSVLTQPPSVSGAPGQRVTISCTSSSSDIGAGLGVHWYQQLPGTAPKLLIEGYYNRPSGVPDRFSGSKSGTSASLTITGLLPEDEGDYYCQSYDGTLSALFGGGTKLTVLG", "TL1A Binding Level (Late)", 72],
  ["320-500 (antibody, human IgG1, name in Kabat numbering, V domains shown, full-length human IgG1, lambda) VH: QVQLVQSGAEVKKPGASVKVSCKASGYTFTSYDINWVRQAPGQGLEWMGWLDPNSGNTGYAQKFQGRVTMTADRSTSTAYMELSSLRSEDTAVYYCAREVPETAAFEYWGQGTLVTVSS VL: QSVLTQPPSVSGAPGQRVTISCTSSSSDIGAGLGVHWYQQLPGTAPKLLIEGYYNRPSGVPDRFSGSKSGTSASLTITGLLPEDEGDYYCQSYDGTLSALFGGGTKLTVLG", "TL1A Binding Level (Late)", 53],
  ["320-512 (antibody, human IgG1, name in Kabat numbering, V domains shown, full-length human IgG1, lambda) VH: QVQLVQSGAEVKKPGASVKVSCKASGYTFTSYDINWVRQAPGQGLEWMGWLNWNSGNTGYAQKFQGRVTMTADRSTSTAYMELSSLRSEDTAVYYCAREVPETAAFEYWGQGTLVTVSS VL: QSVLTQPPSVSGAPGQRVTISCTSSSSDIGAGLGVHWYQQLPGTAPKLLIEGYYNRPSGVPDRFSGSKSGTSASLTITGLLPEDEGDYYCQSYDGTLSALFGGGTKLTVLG", "TL1A Binding Level (Late)", 118],
  ["320-557 (antibody, human IgG1, name in Kabat numbering, V domains shown, full-length human IgG1, lambda) VH: QVQLVQSGAEVKKPGASVKVSCKASGYTFTSYDINWVRQAPGQGLEWMGWLNPNSGNTAYAQKFQGRVTMTADRSTSTAYMELSSLRSEDTAVYYCAREVPETAAFEYWGQGTLVTVSS VL: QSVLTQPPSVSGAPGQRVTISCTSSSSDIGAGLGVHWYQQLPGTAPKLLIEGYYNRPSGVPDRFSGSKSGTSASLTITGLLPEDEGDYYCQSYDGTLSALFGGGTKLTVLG", "TL1A Binding Level (Late)", 6]
]}

Item 320-499 (antibody, human IgG1, name in Kabat numbering, V domains shown, full-length human IgG1, lambda) VH: QVQLVQSGAEVKKPGASVKVSCKASGYTFTSYDINWVRQAPGQGLEWMGWLQPNSGNTGYAQKFQGRVTMTADRSTSTAYMELSSLRSEDTAVYYCAREVPETAAFEYWGQGTLVTVSS VL: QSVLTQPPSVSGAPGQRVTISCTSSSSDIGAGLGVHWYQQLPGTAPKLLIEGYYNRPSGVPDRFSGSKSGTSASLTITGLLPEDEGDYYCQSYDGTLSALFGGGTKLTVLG has what recorded TL1A Binding Level (Late)?
113
